Data origin, for the record: patent US20200199204A1

biological target: HIV-1 Env of Q842.d12 (HIV-1); test: cell-based or functional assay
quantity: neutralization IC50

| binder | result |
| --- | --- |
| CAP256-VRC26.07 (antibody, V domains shown) VH: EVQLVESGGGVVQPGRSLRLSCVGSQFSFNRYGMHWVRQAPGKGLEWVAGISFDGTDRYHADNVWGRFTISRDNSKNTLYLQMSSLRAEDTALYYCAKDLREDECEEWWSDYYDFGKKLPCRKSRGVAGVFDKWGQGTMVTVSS VL: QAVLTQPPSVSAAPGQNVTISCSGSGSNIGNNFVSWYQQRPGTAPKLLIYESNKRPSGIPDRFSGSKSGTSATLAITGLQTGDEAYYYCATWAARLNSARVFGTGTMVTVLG | > 50 µg/mL |
| CAP256-VRC26.09 (antibody, V domains shown) VH: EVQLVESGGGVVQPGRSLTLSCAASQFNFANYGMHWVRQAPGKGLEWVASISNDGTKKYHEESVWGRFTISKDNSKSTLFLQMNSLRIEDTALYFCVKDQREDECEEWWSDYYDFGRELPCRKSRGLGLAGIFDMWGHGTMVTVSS VL: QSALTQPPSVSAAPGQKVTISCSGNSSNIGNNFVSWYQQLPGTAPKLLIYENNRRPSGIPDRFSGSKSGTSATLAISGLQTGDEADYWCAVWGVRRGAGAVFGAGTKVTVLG | 10.1 µg/mL |
| CAP256-VRC26.10 (antibody, V domains shown) VH: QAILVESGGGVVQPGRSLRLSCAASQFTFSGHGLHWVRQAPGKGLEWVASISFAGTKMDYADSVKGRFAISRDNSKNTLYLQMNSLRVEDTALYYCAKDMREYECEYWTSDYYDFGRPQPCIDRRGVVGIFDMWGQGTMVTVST VL: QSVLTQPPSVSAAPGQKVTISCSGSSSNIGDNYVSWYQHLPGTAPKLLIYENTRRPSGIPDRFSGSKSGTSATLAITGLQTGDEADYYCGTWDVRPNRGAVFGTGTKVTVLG | > 50 µg/mL |
